Assay: Oral bioavailability in Sprague-Dawley rat at 10 mg/kg administered via gavage measured after 0.02 to 24 hrs by tandem liquid chromatography/mass spectrometry
Assay type: ADME, organism-based
Settings: in vivo, time 0.02-24 hrs
bioavailability listing for selected compounds.
measurement name: bioavailability

1. CC(C)CCn1c(CN2C(=O)C3(CC3)c3cccc(F)c32)nc2cc(CN)ccc21 = 8.8%
2. NCc1ccc2c(c1)nc(CN1C(=O)C3(CC3)c3cccc(F)c31)n2CCCC(F)(F)F = 13.8%
3. CC(C)CCn1c(CN2C(=O)C3(CC3)c3ccccc32)nc2cc(CN)ccc21 = 4%
4. CC(C)CCn1c(CN2C(=O)C3(CC3)c3ccc(F)cc32)nc2cc(CN)ccc21 = 25%
5. NCc1ccc2c(c1)nc(CN1C(=O)C3(CC3)c3ccc(F)cc31)n2CCCC(F)(F)F = 102%
